EXPERIMENTAL_SYSTEM: T1, recombinant mUHRF1 V1 (mouse, UniProt Q8VDF2 1-782)
T1 chain: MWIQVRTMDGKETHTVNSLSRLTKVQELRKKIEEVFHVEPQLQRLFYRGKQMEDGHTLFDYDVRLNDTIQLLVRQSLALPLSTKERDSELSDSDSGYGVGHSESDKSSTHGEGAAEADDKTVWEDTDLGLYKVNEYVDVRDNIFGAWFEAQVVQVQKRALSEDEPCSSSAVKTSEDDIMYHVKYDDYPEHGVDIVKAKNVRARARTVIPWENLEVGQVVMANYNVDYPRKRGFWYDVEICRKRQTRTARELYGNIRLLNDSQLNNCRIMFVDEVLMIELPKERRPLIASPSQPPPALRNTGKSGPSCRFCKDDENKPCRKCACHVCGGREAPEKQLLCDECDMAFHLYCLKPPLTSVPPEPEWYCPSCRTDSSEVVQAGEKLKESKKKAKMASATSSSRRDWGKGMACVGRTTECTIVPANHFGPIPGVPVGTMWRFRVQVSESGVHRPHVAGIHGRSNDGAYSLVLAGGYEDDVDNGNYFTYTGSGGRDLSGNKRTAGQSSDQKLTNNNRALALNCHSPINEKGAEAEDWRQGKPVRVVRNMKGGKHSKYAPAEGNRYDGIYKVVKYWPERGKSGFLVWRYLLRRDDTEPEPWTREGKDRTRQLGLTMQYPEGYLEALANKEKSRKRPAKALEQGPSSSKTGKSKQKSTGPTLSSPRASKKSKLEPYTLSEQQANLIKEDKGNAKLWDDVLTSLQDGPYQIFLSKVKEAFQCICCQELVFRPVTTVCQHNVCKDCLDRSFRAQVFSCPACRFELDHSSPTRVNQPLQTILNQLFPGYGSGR
EXPERIMENTAL_DETAILS: MST; + 100-fold molar excess PI5P
PROPERTY: Kd (nM)
// units = nM; emit number, no label

Task: Please report the recorded Kd for ARTKQTARKSTGGKA (trimethyl-lysine at K9) [H3K9me3 peptide (titrated in MST)] .
Result: 2600
